Reported MIC50 values are given for each entry in this list.
System: Staphylococcus cohnii
Assay: Antibacterial activity against methicillin-susceptible coagulase-negative Staphylococcus cohnii clinical isolate by broth microdilution method
Assay type: functional

{"structure_string": "CCCCCCCCCCNCCN[C@@]1(C)C[C@H](O[C@H]2[C@H](Oc3c4cc5cc3Oc3ccc(cc3Cl)[C@@H](O)[C@@H](NC(=O)[C@@H](CC(C)C)NC)C(=O)N[C@@H](CC(N)=O)C(=O)N[C@H]5C(=O)N[C@H]3C(=O)N[C@H](C(=O)N[C@H](C(=O)O)c5cc(O)c(CNCP(=O)(O)O)c(O)c5-c5cc3ccc5O)[C@H](O)c3ccc(c(Cl)c3)O4)O[C@H](CO)[C@@H](O)[C@@H]2O)O[C@@H](C)[C@H]1O", "u": "µg/mL", "MIC50": 0.25}
{"structure_string": "CC(=O)NC[C@H]1CN(c2ccc(N3CCOCC3)c(F)c2)C(=O)O1", "u": "µg/mL", "MIC50": 1}
{"structure_string": "CN[C@H](CC(C)C)C(=O)N[C@H]1C(=O)N[C@@H](CC(N)=O)C(=O)N[C@H]2C(=O)N[C@H]3C(=O)N[C@H](C(=O)N[C@H](C(=O)O)c4cc(O)cc(O)c4-c4cc3ccc4O)[C@H](O)c3ccc(c(Cl)c3)Oc3cc2cc(c3O[C@@H]2O[C@H](CO)[C@@H](O)[C@H](O)[C@H]2O[C@H]2C[C@](C)(N)[C@H](O)[C@H](C)O2)Oc2ccc(cc2Cl)[C@H]1O", "u": "µg/mL", "MIC50": 1}
{"structure_string": "CCCCCCCCCC(=O)N[C@@H](Cc1c[nH]c2ccccc12)C(=O)N[C@H](CC(N)=O)C(=O)N[C@@H](CC(=O)O)C(=O)N[C@@H]1C(=O)NCC(=O)N[C@@H](CCCN)C(=O)N[C@@H](CC(=O)O)C(=O)N[C@H](C)C(=O)N[C@@H](CC(=O)O)C(=O)NCC(=O)N[C@H](CO)C(=O)N[C@@H]([C@H](C)CC(=O)O)C(=O)N[C@@H](CC(=O)c2ccccc2N)C(=O)O[C@@H]1C", "u": "µg/mL", "MIC50": 0.5}

----------
Test system: Staphylococcus hominis
Test: Antibacterial activity against methicillin-susceptible coagulase-negative Staphylococcus hominis clinical isolate by broth microdilution method
Type: functional
experimental_endpoint: MIC50

{"compound": "CN[C@H](CC(C)C)C(=O)N[C@H]1C(=O)N[C@@H](CC(N)=O)C(=O)N[C@H]2C(=O)N[C@H]3C(=O)N[C@H](C(=O)N[C@H](C(=O)O)c4cc(O)cc(O)c4-c4cc3ccc4O)[C@H](O)c3ccc(c(Cl)c3)Oc3cc2cc(c3O[C@@H]2O[C@H](CO)[C@@H](O)[C@H](O)[C@H]2O[C@H]2C[C@](C)(N)[C@H](O)[C@H](C)O2)Oc2ccc(cc2Cl)[C@H]1O [VANCOMYCIN]", "experimental_endpoint": "MIC50", "observed_value": "1 µg/mL"}
{"compound": "CC(=O)NC[C@H]1CN(c2ccc(N3CCOCC3)c(F)c2)C(=O)O1 [LINEZOLID]", "experimental_endpoint": "MIC50", "observed_value": "1 µg/mL"}
{"compound": "CCCCCCCCCCNCCN[C@@]1(C)C[C@H](O[C@H]2[C@H](Oc3c4cc5cc3Oc3ccc(cc3Cl)[C@@H](O)[C@@H](NC(=O)[C@@H](CC(C)C)NC)C(=O)N[C@@H](CC(N)=O)C(=O)N[C@H]5C(=O)N[C@H]3C(=O)N[C@H](C(=O)N[C@H](C(=O)O)c5cc(O)c(CNCP(=O)(O)O)c(O)c5-c5cc3ccc5O)[C@H](O)c3ccc(c(Cl)c3)O4)O[C@H](CO)[C@@H](O)[C@@H]2O)O[C@@H](C)[C@H]1O [TELAVANCIN]", "experimental_endpoint": "MIC50", "observed_value": "0.25 µg/mL"}
{"compound": "CCCCCCCCCC(=O)N[C@@H](Cc1c[nH]c2ccccc12)C(=O)N[C@H](CC(N)=O)C(=O)N[C@@H](CC(=O)O)C(=O)N[C@@H]1C(=O)NCC(=O)N[C@@H](CCCN)C(=O)N[C@@H](CC(=O)O)C(=O)N[C@H](C)C(=O)N[C@@H](CC(=O)O)C(=O)NCC(=O)N[C@H](CO)C(=O)N[C@@H]([C@H](C)CC(=O)O)C(=O)N[C@@H](CC(=O)c2ccccc2N)C(=O)O[C@@H]1C", "experimental_endpoint": "MIC50", "observed_value": "0.5 µg/mL"}
